# target: Cytochrome P450 2D6 (Homo sapiens)
# testName: Cytochrome panel assay with activity outcomes; note: % is set by controls: 0 for no effect and ±100 for the full control effect
# reportedConditions: recombinant CYP, pro-luciferin dealkylation, luminescence, p450-cyp2d6; series mostly up to 57.1 µM
Screen size: about 16,000 compounds; about 2,600 (16%) were called active. About 20% were inconclusive and are not listed. Calls come from the whole dose curve; as a rule, active = well fitted curve in the direction sought with a large enough effect; inconclusive = small, poorly fitted or top-dose-only effect, or effect the other way; inactive = no such curve, though single readings can be large or run the other way. Only a sample is shown.
Return exactly one item of true (1) (active), false (0) (inactive)

compound: Cc1nc2ncnn2c(C)c1CCC(=O)Nc1ccc(S(=O)(=O)N2CCCCCC2)cc1
labelValue: false (0)

Any idea what this test logged for CSc1nc2ccccc2cc1/C=C(\C#N)c1cccc(Cl)c1 ?
false (0)

Record lookup: outcome of this test for CCn1c2ccccc2c2cc(NC(=O)C(C)Oc3ccc(OC)cc3)ccc21 (centres undefined) ?
false (0)

How was O=C(CSc1nnc2sc3ccccc3n12)NCc1ccco1 classified in this test?
false (0)

What classification did CCOC(=O)C1CCCN(S(=O)(=O)c2ccccc2)C1 (centres undefined) end up with in this test?
false (0)

Just curious, what result did CC(/C=C/c1ccco1)=N/NC(=O)c1ccccc1Cl get here?
false (0)

Tell me the assay call for CCc1c(O)nc(SCC(=O)NC(C)(C)C)n(-c2ccccc2)c1=O please.
false (0)

# fetch the recorded call for N[C@@H](Cc1ccc(O)c(O)c1)C(=O)O here
false (0)

What call does the record list for COC(=O)c1nn(-c2cccc(C(F)(F)F)c2)c(=O)cc1Sc1ccccn1 ?
false (0)

What call does the record list for Cc1ccc(C(=O)COC(=O)c2ccccc2N2C(=O)C3C4CCC(C4)C3C2=O)cc1C (centres undefined) ?
false (0)

I'd appreciate the recorded outcome for O=C(c1cnccn1)N1CCC[C@@]2(CCN(c3ccncc3)C2)C1 from this test.
false (0)
